Assay: in vivo
Settings: CD-1, mouse, po, 25 mg/kg
measuredParameter: AUC(0-t)

1) Nc1ncnc2c1ncn2[C@@H]1O[C@H](CNS(=O)(=O)NC(=O)CCCC[C@@H]2SC[C@@H]3NC(=O)N[C@@H]32)[C@@H](O)[C@H]1O [Bio-AMS]
260 nM·h

Data provenance: paper PMC6151865
